Hello, the source for this data is the supplement of paper PMC10011410, in case you need it.

- System: U-2 OS
- Protocol Details: cell painting activity score (Mahalanobis distance from DMSO wells); higher = stronger morphological phenotype
- Reported Conditions: 5 µM; 24 h
Please mark true if the recorded cell painting activity score is equal to or greater than 9, and false if it falls below.

INSERT INTO assay_data (smiles_repr, classification) VALUES
  ('C=CC(=O)Nc1cc(Nc2nccc(-c3cn(C)c4ccccc34)n2)c(OC)cc1N(C)CCN(C)C', 'true'),
  ('C=C(C)[C@@H](CC=C(C)C)C[C@@]12C[C@@H](CC=C(C)C)C(C)(C)[C@@](CC=C(C)C)(C(=O)/C(=C(\O)c3ccc(O)c(O)c3)C1=O)C2=O', 'false'),
  ('C=CCNC1=C2C[C@@H](C)C[C@H](OC)[C@H](O)[C@@H](C)/C=C(\C)[C@H](OC(N)=O)[C@@H](OC)/C=C\C=C(/C)C(=O)NC(=CC1=O)C2=O', 'true'),
  ('O=C(/C(C(N1CC2=CC=CC=C2)=O)=C/C3=C(C)C=C(O)C=C3C)N(CC4=CC=CC=C4)C1=O', 'false'),
  ('C[C@H](CC[C@@]1(O)O[C@H]2C[C@H]3[C@@H]4CC=C5C[C@@H](O[C@@H]6O[C@H](CO)[C@@H](O[C@@H]7O[C@@H](C)[C@H](O)[C@@H](O)[C@H]7O)[C@H](O)[C@H]6O[C@@H]6O[C@@H](C)[C@H](O)[C@@H](O)[C@H]6O)CC[C@]5(C)[C@H]4CC[C@]3(C)[C@H]2[C@@H]1C)CO[C@@H]1O[C@H](CO)[C@@H](O)[C@H](O)[C@H]1O', 'true');

----------
- System: U-2 OS
- Protocol Details: cell painting activity score (Mahalanobis distance from DMSO wells); higher = stronger morphological phenotype
- Reported Conditions: 2.5 µM; 24 h
Result Type: cell painting activity score

INSERT INTO measurements (smiles_repr, test_value) VALUES
  ('NC(=O)c1ccc(I)c([N+](=O)[O-])c1', 2.86),
  ('C=C1C(=O)O[C@H](CCC)[C@H]1C(=O)O', 3.59),
  ('CCN1CCN(c2ccc3nsnc3c2[N+](=O)[O-])CC1', 4.69),
  ('CC(C)C[C@@H](C=O)NC(=O)[C@H](CC(C)C)NC(=O)[C@H](CC(C)C)NC(=O)OCc1ccccc1', 15.5),
  ('CO[C@H]1C[C@@H]2CC[C@@H](C)[C@@](O)(O2)C(=O)C(=O)N2CCCC[C@H]2C(=O)O[C@H]([C@H](C)C[C@@H]2CC[C@@H](O)[C@H](OC)C2)CC(=O)[C@H](C)/C=C(\C)[C@@H](O)[C@@H](OC)C(=O)[C@H](C)C[C@H](C)/C=C/C=C/C=C/1C', 12.1),
  ('COc1ccc2c(c[n+](C)c3c4cc5c(cc4ccc23)OCO5)c1OC', 14.6),
  ('N[C@@H](Cc1ccc(N(CCCl)CCCl)cc1)C(=O)O', 5.71),
  ('CS(=O)(=O)OCCCCOS(C)(=O)=O', 5.59),
  ('Cc1onc(C(=O)N2CCN(C(c3ccc(Cl)cc3)c3ccc(Cl)cc3)CC2)c1[N+](=O)[O-]', 10.6);

----------
Each entry below lists one item and its recorded relative cell count value.
- System: U-2 OS
- Protocol Details: relative cell count vs DMSO (cell painting) (fraction of DMSO control); higher = more cells remaining (less cytotoxic)
- Reported Conditions: 5 µM; 24 h
Result Type: relative cell count

INSERT INTO measurements (compound, target_of_assay, test_value) VALUES
  ('COc1ccc(N2C(=O)CC(Sc3nnc(-c4ccccc4)o3)C2=O)cc1 (configuration not stated)', 'U-2 OS', 1.08),
  ('CC(C)[C@H](C(=O)Nc1ccc(C(=O)NO)cc1)c1ccccc1', 'U-2 OS', 0.465),
  ('CC1(C)[C@@H](O[C@H]2O[C@H](C(=O)O)[C@@H](O)[C@H](O)[C@H]2O[C@@H]2O[C@H](C(=O)O)[C@@H](O)[C@H](O)[C@H]2O)CC[C@]2(C)[C@H]3C(=O)C=C4[C@@H]5C[C@@](C)(C(=O)O)CC[C@]5(C)CC[C@@]4(C)[C@]3(C)CC[C@@H]12.N', 'U-2 OS', 0.982),
  ('O=C1/C(=C/c2ccc(O)c(Br)c2)CCC/C1=C\c1ccc(O)c(Br)c1', 'U-2 OS', 0.904),
  ('Cc1ccc(C(=O)N(CCCN)[C@@H](c2oc3cc(Cl)ccc3c(=O)c2Cc2ccccc2)C(C)C)cc1.Cl', 'U-2 OS', 0.222),
  ('C[C@@H]1CC[C@@]2(OC1)O[C@H]1[C@@H](O)[C@H]3[C@@H]4CC[C@H]5C[C@@H](O[C@@H]6O[C@H](CO)[C@H](O[C@@H]7O[C@H](CO)[C@@H](O)[C@H](O[C@@H]8OC[C@@H](O)[C@H](O)[C@H]8O)[C@H]7O[C@@H]7O[C@H](CO)[C@H](O)[C@H](O[C@@H]8O[C@H](CO)[C@@H](O)[C@H](O)[C@H]8O)[C@H]7O)[C@H](O)[C@H]6O)[C@H](O)C[C@]5(C)[C@H]4CC[C@]3(C)[C@H]1[C@@H]2C', 'U-2 OS', 0.19),
  ('O=C1Cc2c([nH]c3ccc(Br)cc23)-c2ccccc2N1', 'U-2 OS', 0.835);

----------
- System: U-2 OS
- Protocol Details: relative cell count vs DMSO (cell painting) (fraction of DMSO control); higher = more cells remaining (less cytotoxic)
- Reported Conditions: 1.25 µM; 24 h
Tag: 1 if measured relative cell count is not below 0.9, 0 if it is.

INSERT INTO measurements (smiles_repr, classification) VALUES
  ('C=C(C)[C@@H](CC=C(C)C)C[C@@]12C[C@@H](CC=C(C)C)C(C)(C)[C@@](CC=C(C)C)(C(=O)/C(=C(\O)c3ccc(O)c(O)c3)C1=O)C2=O', 1),
  ('CCCCCC[C@H]1C(=O)O[C@H](C)[C@H](NC(=O)c2cccc(NC=O)c2O)C(=O)O[C@@H](C)[C@@H]1OC(=O)CC(C)C', 0),
  ('CN(C)/N=N/c1nc[nH]c1C(N)=O', 1),
  ('O=NN(CCCl)C(=O)NC1CCCCC1', 1),
  ('S=C(Nc1ccccc1)Nc1nc(-c2ccccc2)[n+](-c2ccccc2)s1', 1),
  ('O=C1C(NCCN2CCOCC2)=C(Cl)C(=O)c2ncccc21', 0),
  ('CC1=C2C(=CO[C@H](C)[C@H]2C)C(=O)C(C(=O)O)=C1O', 1),
  ('COc1ccc2c(c[n+](C)c3c4cc5c(cc4ccc23)OCO5)c1OC', 1);

----------
- System: U-2 OS
- Protocol Details: cell painting activity score (Mahalanobis distance from DMSO wells); higher = stronger morphological phenotype
- Reported Conditions: 2.5 µM; 24 h
Result Type: cell painting activity score

INSERT INTO results (smiles_repr, target_of_assay, result_type, test_value) VALUES
  ('O=[N+]([O-])c1c(Sc2ncnc3nc[nH]c23)cc(Cl)c2nsnc12', 'U-2 OS', 'cell painting activity score', 4.96),
  ('C=CC(=O)Nc1cc(Nc2nccc(-c3cn(C)c4ccccc34)n2)c(OC)cc1N(C)CCN(C)C', 'U-2 OS', 'cell painting activity score', 9.22),
  ('O=C(O)C1=CC(=C(c2ccc(O)c(C(=O)O)c2)c2ccc(O)c(C(=O)O)c2)C=CC1=O', 'U-2 OS', 'cell painting activity score', 3.92),
  ('c1ccc(Nc2nc(-c3ccccc3)ns2)cc1', 'U-2 OS', 'cell painting activity score', 4.32),
  ('O=C(CBr)N1CC([N+](=O)[O-])([N+](=O)[O-])C1', 'U-2 OS', 'cell painting activity score', 11.3);

----------
- System: U-2 OS
- Protocol Details: cell painting activity score (Mahalanobis distance from DMSO wells); higher = stronger morphological phenotype
- Reported Conditions: 1.25 µM; 24 h
cell painting activity score values for the molecules below.
Result Type: cell painting activity score

INSERT INTO assay_data (smiles_repr, test_value) VALUES
  ('C/C1=C/C(=O)O[C@@H]2C[C@@H](CC[C@H](C)/C=C\CC1)O[C@@](O)([C@@H]1CSC(=O)N1)C2', 14.2),
  ('CC(C)[C@H](C(=O)Nc1ccc(C(=O)NO)cc1)c1ccccc1', 20.2),
  ('Nc1ccn([C@@H]2O[C@H](CO)[C@@H](O)C2(F)F)c(=O)n1', 14),
  ('COC(=O)[C@]1(C)CC[C@]2(C)CC[C@]3(C)C4=CC=C5C(=CC(=O)C(O)=C5C)[C@]4(C)CC[C@@]3(C)[C@@H]2C1', 33.5);

----------
- Tested on: U-2 OS
- Protocol Details: relative cell count vs DMSO (cell painting) (fraction of DMSO control); higher = more cells remaining (less cytotoxic)
- Reported Conditions: 1.25 µM; 24 h
Result Type: relative cell count

INSERT INTO measurements (compound, target_of_assay, result_type, test_value) VALUES
  ('COc1cc2c(c(OC)c1OC)-c1ccc(OC)c(=O)cc1[C@@H](NC(C)=O)CC2', 'U-2 OS', 'relative cell count', 0.215),
  ('COS(=O)(=O)O.C[n+]1c2ccccc2nc2ccccc21', 'U-2 OS', 'relative cell count', 0.92),
  ('COc1cc([C@@H]2c3cc4c(cc3[C@H](O)[C@H]3COC(=O)[C@H]23)OCO4)cc(OC)c1OC', 'U-2 OS', 'relative cell count', 0.195),
  ('CCCCCCCCCCCC1=C(O)C(=O)C=C(O)C1=O', 'U-2 OS', 'relative cell count', 0.848),
  ('CC(C)[C@H](C(=O)Nc1ccc(C(=O)NO)cc1)c1ccccc1', 'U-2 OS', 'relative cell count', 0.52),
  ('COc1cc2ncnc(Nc3ccc(F)c(Cl)c3)c2cc1NC(=O)/C=C/CN1CCCCC1', 'U-2 OS', 'relative cell count', 0.681),
  ('O=S1(=O)C=C(Sc2nn(-c3ccccc3)c(=S)s2)c2ccccc21', 'U-2 OS', 'relative cell count', 0.647),
  ('CC(Cc1ccc(O)c(O)c1)C(C)Cc1ccc(O)c(O)c1 (centres undefined)', 'U-2 OS', 'relative cell count', 0.852),
  ('CC[C@@]1(O)C(=O)OCc2c1cc1n(c2=O)Cc2cc3ccccc3nc2-1', 'U-2 OS', 'relative cell count', 0.476);
